B1: Pistol ribozyme (parent)
chain: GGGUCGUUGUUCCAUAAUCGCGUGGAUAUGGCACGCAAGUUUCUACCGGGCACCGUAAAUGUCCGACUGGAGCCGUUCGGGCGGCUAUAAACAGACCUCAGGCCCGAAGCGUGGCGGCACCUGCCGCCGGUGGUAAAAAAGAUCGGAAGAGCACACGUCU

Variants of: B1
Measurement Description: aptazyme ON/OFF ratio, guanine; higher = stronger switching; co-transcriptional cleavage with and without guanine
Measured Quantity: aptazyme ON/OFF ratio
Keep it simple and answer with nothing but the number.

The value of aptazyme ON/OFF ratio measured for the variant U7G G9C U10G U11C C12A C13A turned out to be 1.19

The value of aptazyme ON/OFF ratio measured for the variant U7A U8C G9C U10G U11G C13A turned out to be 1.12

The value of aptazyme ON/OFF ratio measured for the variant U7G U8A G9U U10A U11C C12U C13U turned out to be 1.01

The value of aptazyme ON/OFF ratio measured for the variant U7A U8C G9U U11A C12G C13U turned out to be 1.2

The value of aptazyme ON/OFF ratio measured for the variant U7G U8C G9A U10C turned out to be 3.27

The value of aptazyme ON/OFF ratio measured for the variant U8C G9C U10C U11G C12G C13G turned out to be 1.09

The value of aptazyme ON/OFF ratio measured for the variant U7C U8G G9C U10A C12G C13G turned out to be 1.2

The value of aptazyme ON/OFF ratio measured for the variant U7A U8A G9C U11G turned out to be 1.47

The value of aptazyme ON/OFF ratio measured for the variant U8A G9A U10C U11G C12G C13U turned out to be 1.17

The value of aptazyme ON/OFF ratio measured for the variant U7G U8A G9C U11G C13U turned out to be 1.04

The value of aptazyme ON/OFF ratio measured for the variant U7C U8A G9U U10G C12U C13U turned out to be 1.27

The value of aptazyme ON/OFF ratio measured for the variant U8G U10C U11A C13G turned out to be 1.05

The value of aptazyme ON/OFF ratio measured for the variant U8A G9A U10C U11G C12U turned out to be 1.26

The value of aptazyme ON/OFF ratio measured for the variant U7G U8G U10C U11A C12A C13A turned out to be 1.08

The value of aptazyme ON/OFF ratio measured for the variant U8G G9A U10A C12G C13U turned out to be 1.35

The value of aptazyme ON/OFF ratio measured for the variant U7C G9A U10C U11C C12G C13G turned out to be 1.12

The value of aptazyme ON/OFF ratio measured for the variant U7C G9C U10C U11A C12G turned out to be 0.941

The value of aptazyme ON/OFF ratio measured for the variant U8G U10A U11C C12U C13U turned out to be 1.14

The value of aptazyme ON/OFF ratio measured for the variant U7C U8A G9A U10G U11C C12A C13G turned out to be 1.1

The value of aptazyme ON/OFF ratio measured for the variant U7G U8C G9U U10G U11C C12U C13U turned out to be 1.16

The value of aptazyme ON/OFF ratio measured for the variant U8A G9A U10A U11G C12U C13G turned out to be 1.18

The value of aptazyme ON/OFF ratio measured for the variant U7G U8A G9A C12G C13G turned out to be 1.04

The value of aptazyme ON/OFF ratio measured for the variant U8G U10C C12G C13G turned out to be 1.14

The value of aptazyme ON/OFF ratio measured for the variant U7G G9A U10C U11C C12U C13A turned out to be 1.05

The value of aptazyme ON/OFF ratio measured for the variant U7G U10A C12G C13U turned out to be 1.17

The value of aptazyme ON/OFF ratio measured for the variant U7C G9C U10A C12U C13U turned out to be 1.04

The value of aptazyme ON/OFF ratio measured for the variant U7G U8A G9C U10G C12G C13U turned out to be 1.18

The value of aptazyme ON/OFF ratio measured for the variant U8C G9U U10G U11A C12A C13G turned out to be 1.17

The value of aptazyme ON/OFF ratio measured for the variant U7C U8C G9C U10G C13U turned out to be 1.17

The value of aptazyme ON/OFF ratio measured for the variant U8G G9A U11C C12U C13A turned out to be 1.25

The value of aptazyme ON/OFF ratio measured for the variant U7C U8A G9A U10A U11G turned out to be 1.31

The value of aptazyme ON/OFF ratio measured for the variant U7G U8C G9U U10G C13U turned out to be 1.24

The value of aptazyme ON/OFF ratio measured for the variant U7C U10G C13A turned out to be 1.2

The value of aptazyme ON/OFF ratio measured for the variant U8A G9U U11A C12A turned out to be 1.28

The value of aptazyme ON/OFF ratio measured for the variant U7C U8G U10C C13U turned out to be 1.54

The value of aptazyme ON/OFF ratio measured for the variant U8G G9U U10C U11C C12U C13A turned out to be 1.02

The value of aptazyme ON/OFF ratio measured for the variant U7G G9U U10A U11C C12U C13G turned out to be 1.27

The value of aptazyme ON/OFF ratio measured for the variant U7G G9C U10C U11G C13A turned out to be 1.19

The value of aptazyme ON/OFF ratio measured for the variant U7A U8A U10G U11C C12A C13G turned out to be 1.09

The value of aptazyme ON/OFF ratio measured for the variant U8A G9U U11C turned out to be 1.03

The value of aptazyme ON/OFF ratio measured for the variant U7C U8A G9C U10G U11C C12A C13G turned out to be 1.21

The value of aptazyme ON/OFF ratio measured for the variant U7C U8G G9A U10G U11A C12A C13G turned out to be 1.3

The value of aptazyme ON/OFF ratio measured for the variant U7G G9U U10A C12U C13G turned out to be 1.14

The value of aptazyme ON/OFF ratio measured for the variant U8G G9U U10A U11G C12G C13A turned out to be 1.05

The value of aptazyme ON/OFF ratio measured for the variant G9C U10A U11A C12G C13G turned out to be 1.27

The value of aptazyme ON/OFF ratio measured for the variant U7G U8C G9A U10G U11A C12U turned out to be 1.06
